assay: Toxicity liver stage against HepG2, at 10uM; type: cell-based; set-up: test concentration 10 uM, cell line HepG2-A16-CD81EGFP; settings: human, HepG2-A16-CD81EGFP cells; read-out: INHIBITION
recordedMetric: cytotoxicity at 10 µM (%)
Report as a plain number; the unit % is understood.

q: Dear colleague, please send me the reported cytotoxicity at 10 µM for N#Cc1cccc(CN2C[C@@H](F)[C@@H](OCc3nc4ccccc4[nH]3)C2)c1 when you can.
a: 6

q: Dear colleague, please send me the reported cytotoxicity at 10 µM for N#Cc1cc(NC(=O)c2cc[nH]n2)ccc1N1CCC(O)CC1 when you can.
a: -0.758

q: Dear colleague, please send me the reported cytotoxicity at 10 µM for Cc1cc(C)c2ncc(C#N)c(NC3CCN(CC(N)=O)CC3)c2c1 when you can.
a: -4.38

q: Dear colleague, please send me the reported cytotoxicity at 10 µM for c1cc(CN2C[C@@H]3OCCN(CC4CCCO4)[C@@H]3C2)cs1 (stereo partly specified) when you can.
a: -76.9

q: Dear colleague, please send me the reported cytotoxicity at 10 µM for CC1(C)CN(C(=O)Nc2cc(C(F)(F)F)c[nH]c2=O)CCO1 when you can.
a: 5.12

q: Dear colleague, please send me the reported cytotoxicity at 10 µM for O=C(CSc1ccc2c(c1)OCCO2)NS(=O)(=O)c1cccnc1 when you can.
a: -5.72

q: Dear colleague, please send me the reported cytotoxicity at 10 µM for NS(=O)(=O)CCNC(=O)c1cc(Br)c2c(c1)OCCO2 when you can.
a: 1.06

q: Dear colleague, please send me the reported cytotoxicity at 10 µM for Cc1ncc2c(n1)CN(CC(=O)Nc1nnc(C)s1)CC2 when you can.
a: 0.153

q: Dear colleague, please send me the reported cytotoxicity at 10 µM for O=C(N1CCOCC1)N1CCCC(c2ncncc2-c2ccncc2)C1 (stereo unspecified) when you can.
a: -25.9

q: Dear colleague, please send me the reported cytotoxicity at 10 µM for COc1ccc(-c2ccc(C(=O)NS(C)(=O)=O)c(F)c2)cc1 when you can.
a: 5.7

q: Dear colleague, please send me the reported cytotoxicity at 10 µM for CN1CCCC[C@@H]2[C@H]1[C@@H](c1ccccc1)CCN2C(=O)c1cccnc1 when you can.
a: -21.2

----------
Consider the following molecules; for each one, report its cytotoxicity at 10 µM.
experiment: Toxicity liver stage against HepG2, at 10uM; format: cell-based; design: test concentration 10 uM, cell line HepG2-A16-CD81EGFP; conditions: human, HepG2-A16-CD81EGFP cells; read-out: INHIBITION
Report as a plain number; the unit % is understood.

q: Dear colleague, please send me the reported cytotoxicity at 10 µM for Cn1cc(CNC(=O)NCCOc2ccc(F)c(F)c2)cn1 when you can.
a: 2.13

q: Dear colleague, please send me the reported cytotoxicity at 10 µM for C[C@H](NS(C)(=O)=O)C(=O)NCc1cc(-c2ccco2)n[nH]1 when you can.
a: -8.27

q: Dear colleague, please send me the reported cytotoxicity at 10 µM for CC(C)C(C(N)=O)c1cccc(Cl)c1 (stereo unspecified) when you can.
a: 3.82

q: Dear colleague, please send me the reported cytotoxicity at 10 µM for COc1nccc(N2CC[C@H](CO)[C@@H](O)C2)c1C#N when you can.
a: -141

q: Dear colleague, please send me the reported cytotoxicity at 10 µM for CCn1c(C2CCCN(Cc3ccc(OC)c(C)c3C)C2)nn(C)c1=O (stereo unspecified) when you can.
a: 5.52

q: Dear colleague, please send me the reported cytotoxicity at 10 µM for Cc1ccc(OCc2nnc(SCC3CCCN(C)C3)o2)cc1 (stereo unspecified) when you can.
a: -3.73
